Test system: OVCAR-5 ovarian
measurement notes: NCI tumour cell line growth inhibition, 48 h
endpoint label: TGI

Some solved cases for reference:
[[record]]
compound = "N#Cc1ncn(CCO)c1N"
reading = "> 100 µM"

[[record]]
compound = "O=C1C2Cc3c(n(C(=O)c4ccccc4)c4ccccc34)CC2C(=O)N1c1ccc(Nc2ccc(N3C(=O)C4Cc5c(n(C(=O)c6ccccc6)c6ccccc56)CC4C3=O)cc2)cc1 (stereo not given)"
reading = "> 100 µM"

[[record]]
compound = "Cc1ccc(-c2nc(N3CCNCC3)c3oc(-c4ccccc4)nc3n2)cc1"
reading = "3.36 µM"

[[record]]
compound = "CC1=C[C@@H](C)C[C@]2(C)CC[C@H](O2)[C@]23CC[C@](CO)(C[C@H](O2)[C@@H]2O[C@@](C)(CC2=O)[C@@H](O)[C@H]2CC[C@@]4(CCC[C@@H](O4)[C@H](C)C(=O)O[C@H]4C[C@H]([C@]5(O)OCC[C@H](C)[C@@H]5O)O[C@H]4C=C1)O2)O3"
reading = "> 10 µM"

[[record]]
compound = "Cc1cc(=O)n(-c2c(C)cccc2Cl)c(/C=C(\\O)c2ccncc2)n1"
reading = "> 100 µM"

[[record]]
compound = "CC(c1ccccc1)[C@@H](C(=O)Nc1ccc(I)cc1F)N1C(=O)N[C@H](c2ccc(OC[C@H](O)CO)cc2)C1=O (stereo not given in full)"
reading = "> 25 µM"


Note to self: TGI of CN1N=C(c2ccccc2)C(C(c2ccccc2[N+](=O)[O-])C2C(=O)N(C)N=C2c2ccccc2)C1=O (stereo not given) with OVCAR-5 ovarian was > 100 µM

###

System: SK-OV-3 ovarian
measurement notes: NCI tumour cell line growth inhibition, 48 h
Listed compounds paired with reported TGI

[[record]]
compound = "CCOC(=O)N(C)C(=C(F)F)C(F)(F)F"
endpoint_label = "TGI"
reading = "> 100 µM"

[[record]]
compound = "CCOC(=O)/C(C#N)=C1\\SS/C(=C(/C#N)C(=O)OCC)S1"
endpoint_label = "TGI"
reading = "> 100 µM"

[[record]]
compound = "c1ccc(-c2n(Cc3ccc4ccccc4c3)cc[n+]2Cc2ccc3ccccc3c2)cc1"
endpoint_label = "TGI"
reading = "2.89 µM"

[[record]]
compound = "COc1cc(/C=C/c2ccc(Br)cc2)cc(OC)c1OC"
endpoint_label = "TGI"
reading = "> 89.9 µM"


Documented TGI of Cc1nc(-n2nc(-c3ccccc3)cc2-c2ccccc2)sc1C(=O)/C=C/c1ccc(Cl)c(Cl)c1 : > 100 µM

Documented TGI of CC1CCC(=O)C(C(O)CC2CC(=O)N(c3ccccc3)C(=O)C2)C1 (stereo not given) : > 100 µM

Documented TGI of Cc1ccc(-c2nc(N3CCNCC3)c3oc(-c4ccccc4)nc3n2)cc1 : 29.5 µM

###

Listed molecules paired with reported TGI
Test system: SNB-19 CNS
measurement notes: NCI tumour cell line growth inhibition, 48 h

[[record]]
molecule = "CN(C)C(=O)NC(=S)N(C)C"
reading = "> 100 µM"


Documented TGI of Nc1nnnc2nc[nH]c12 : > 100 µM

Documented TGI of Cc1cc(S(=O)(=O)NC2=NCCN2Cc2ccccc2)c(S)cc1Cl : > 100 µM

Documented TGI of COc1ccc(NC(=O)CC(=O)NNC(Sc2ccccc2)c2cc(N=Nc3ccc(Br)cc3)ccc2O)cc1 (configuration not stated) : > 10 µM

Documented TGI of CCN(CC)CC(=O)NC1c2ccccc2Oc2c(C)cccc21 (configuration not stated) : > 100 µM

###

System: T-47D breast
measurement notes: NCI tumour cell line growth inhibition, 48 h
endpoint label: TGI

[[record]]
compound = "CCCCCCCCCC(CCCC(O)CC(=O)O)OC1OC(COC2OC(C)C(OC(C)=O)C(O)C2O)C(O)C(O)C1OC1OC(CO)C(O)C(O)C1OC1OC(C)C(OC(=O)CC(C)C)C(O)C1O (centres undefined)"
target_desc = "T-47D breast"
endpoint_label = "TGI"
reading = "> 35 µM"

[[record]]
compound = "NC(=O)NNCc1c(-c2ccccc2)no[n+]1[O-]"
target_desc = "T-47D breast"
endpoint_label = "TGI"
reading = "> 100 µM"

[[record]]
compound = "C[C@H](CS)C(=O)N1c2ccccc2C[C@H]1C(=O)O"
target_desc = "T-47D breast"
endpoint_label = "TGI"
reading = "> 100 µM"

[[record]]
compound = "OCCCSCCO"
target_desc = "T-47D breast"
endpoint_label = "TGI"
reading = "> 100 µM"

[[record]]
compound = "O=CNc1ccc(S(=O)(=O)c2ccc(NC=O)cc2)cc1"
target_desc = "T-47D breast"
endpoint_label = "TGI"
reading = "> 100 µM"


Documented TGI of O=C(CC(c1ccccc1)C1C(=O)NC(=S)NC1=O)c1ccc([N+](=O)[O-])cc1 (centres undefined) : > 100 µM

Documented TGI of O=c1c2ccccc2nc(-c2ccccc2Cl)n1-c1nnc(C(F)(F)F)s1 : > 100 µM

Documented TGI of CS(C)(=O)=Nn1c(=O)n2n(c1=O)C1c3ccccc3C2c2ccccc21 : > 100 µM

Documented TGI of O=Cc1c(-c2ccccc2)[nH]c2ccccc2c1=O : > 100 µM

Documented TGI of O=C(Cc1csc2nc(-c3ccc(Cl)cc3)cn12)N/N=C/c1ccccc1O : > 100 µM

Documented TGI of CC(C)[Si]1(C(C)C)OCC2OC(n3c(C(=O)c4ccccc4)cc(=O)[nH]c3=O)CC2O[Si](C(C)C)(C(C)C)O1 (centres undefined) : 16 µM

Documented TGI of O=C(Nc1ccc(-n2ccc3c(NC(=O)c4ccccc4)nccc32)cc1)Nc1cccc(C(F)(F)F)c1 : 31 µM

Documented TGI of Cc1n[n+]([O-])c(C)cc1[N+](=O)[O-] : 35.3 µM

###

Test system: HL-60(TB) leukemia
measurement notes: NCI tumour cell line growth inhibition, 48 h
Cut-off 3 µM on TGI, inclusive. At or above means Y; below means N.

Kindly determine if TGI recorded for COc1cc(OC)c2c(=O)c3c([N+](=O)[O-])cccc3n(C)c2c1 is above or exactly 3 µM.
Y

Kindly determine if TGI recorded for COc1ccc(Cn2cc3c(c2)-c2oncc2CC3)cc1OC is above or exactly 3 µM.
N

Kindly determine if TGI recorded for O=C(/C=C1\N=C(c2ccccc2)N(c2nc3c(Cl)cc(Cl)cc3s2)C1=O)/C=C/c1ccccc1 is above or exactly 3 µM.
Y

Kindly determine if TGI recorded for CCOC(=O)c1c(NC(=O)c2ccccc2)sc2c3c(ccc12)OCN(C)C3 is above or exactly 3 µM.
Y

Kindly determine if TGI recorded for O=S(=O)(c1ccccc1)N1CN2CN(C1)CN(S(=O)(=O)c1ccccc1)C2 is above or exactly 3 µM.
Y

Kindly determine if TGI recorded for Nc1cc(S(=O)(=O)O)cc2ccc(S(=O)(=O)O)cc12 is above or exactly 3 µM.
Y

Kindly determine if TGI recorded for CCCCN=C(N)c1ccc(N2CCCN(c3ccc(C(N)=NCCCC)cc3)CC2)cc1 is above or exactly 3 µM.
N

Kindly determine if TGI recorded for COc1ccc(-c2ccccc2)c2[nH]c3c(c12)CCNC3=O is above or exactly 3 µM.
Y

Kindly determine if TGI recorded for Oc1cc(CN2CCOCCOCCOCCOCC2)c(O)cc1CN1CCOCCOCCOCCOCC1 is above or exactly 3 µM.
Y

###

Tested on: K-562 leukemia
measurement notes: NCI tumour cell line growth inhibition, 48 h
Listed molecules paired with reported TGI

Some solved cases for reference:
[[record]]
molecule = "CC(=O)[CH-]C(=O)c1ccccc1.CC(=O)[CH-]C(=O)c1ccccc1.CC(C)CCC[C@H](C)C1CCC2[C@@H]3CC=C4C[C@@H]([O-])CC[C@]4(C)C3CC[C@@]21C.CC(C)CCC[C@H](C)C1CCC2[C@@H]3CC=C4C[C@@H]([O-])CC[C@]4(C)C3CC[C@@]21C.Cl.[Ti+4] (stereo not given in full)"
reading = "> 25 µM"

[[record]]
molecule = "COc1ccc2nc(-c3ccccc3)cc(Nc3cccc(C(C)=O)c3)c2c1"
reading = "> 100 µM"

[[record]]
molecule = "CCOC(=O)CCC(NC(=O)C(N)c1ccc([N+](=O)[O-])cc1)C(=O)NC(CCC(=O)OCC)C(=O)OCC (stereo not given)"
reading = "> 100 µM"


Documented TGI of COc1cccc(C2=C(c3cn(C)c4cc(F)ccc34)C(=O)NC2=O)c1 : > 25 µM

Documented TGI of Cc1ccc(-c2nc3cc(Cl)c(Cl)cc3nc2C#N)cc1 : > 100 µM

Documented TGI of Cc1nc(C)c(N2CCN(C(=O)O)CC2)c(=O)[nH]1 : > 100 µM

Documented TGI of [N-]=[N+]=Nc1ccc2c(c1)Sc1ccccc1N2CCCCN1CCN(Cc2ccc(C(=O)c3ccc(CSCC(N)C(=O)O)cc3)cc2)CC1 (stereo not given) : 44.9 µM

Documented TGI of CN(C)C=NC1CCC(C(C)(C)C)CC1 (stereo not given) : 45.1 µM

Documented TGI of CCOC(=O)N(C)C(=C(F)F)C(F)(F)F : 62.1 µM

Documented TGI of Cc1cc(=O)n(-c2c(C)cccc2Cl)c(/C=C(\O)c2ccncc2)n1 : > 100 µM
